assay: Selectivity index, ratio of IC50 for rat L6 cells to IC50 for Plasmodium falciparum K1; type: toxicity, cell-based; settings: L6 cells (versus Plasmodium falciparum K1), read-out: Ratio IC50
Label scheme for selectivity ratio: category 1 = under 50, category 2 = from 50 up to 80, category 3 = 80 and over

Use the examples below as a reference point.
{"columns": ["compound", "label"],
 "data": [
  ["CN(C)C12CC(OC(=O)CN3CCCCC3)C(C(c3ccccc3)C1)C(c1ccccc1)C2 (centres undefined)", "category 2"],
  ["CN1CCN(CCC(=O)N2CCC3(N(C)C)CC(c4ccccc4)C2C(c2ccccc2)C3)CC1 (racemic)", "category 2"]
]}

In: For the record CN1CCN(CC(=O)N2CCC3(N(C)C)CC(c4ccccc4)C2C(c2ccccc2)C3)CC1 (racemic) , report the class its selectivity ratio corresponds to.
Out: category 3

In: For the record c1ccc(C2CC3(N4CCCCC4)CCNC2C(c2ccccc2)C3)cc1 (centres undefined) , report the class its selectivity ratio corresponds to.
Out: category 3

* * *

test system: Trypanosoma brucei rhodesiense; assay: Antitrypanosomal activity against Trypanosoma brucei rhodesiense after 72 hrs by alamar blue assay; type: functional, organism-based
readout-type: pIC50
Give bare numbers, as −log10 of the molar value.

Please review the entries below; each comes with its answer.
{"columns": ["compound", "pIC50"],
 "data": [
  ["CN1CCN(CCC(=O)NC2CC3(N4CCCC4)CC(c4ccccc4)C2C(c2ccccc2)C3)CC1 (racemic)", 5.38],
  ["CN1CCN(CC(=O)NC2CC3(N4CCCC4)CC(c4ccccc4)C2C(c2ccccc2)C3)CC1 (racemic)", 5.95],
  ["CN1CCN(CC(=O)N2CCC3(N4CCCCC4)CC(c4ccccc4)C2C(c2ccccc2)C3)CC1 (racemic)", 4.04],
  ["CCN(CC)CC(=O)OC1CC2(N3CCCCC3)CC(c3ccccc3)C1C(c1ccccc1)C2 (centres undefined)", 6.25],
  ["CN(C)C12CC(N)C(C(c3ccccc3)C1)C(c1ccccc1)C2 (centres undefined)", 6.46],
  ["CN(C)C12CC(OC(=O)CN3CCCC3)C(C(c3ccccc3)C1)C(c1ccccc1)C2 (centres undefined)", 6.68]
]}

Below are 7 compounds. Give each one its pIC50.
1. CN1CCN(CC(=O)NC2CC3(N4CCCCC4)CC(c4ccccc4)C2C(c2ccccc2)C3)CC1 (racemic)
2. NC1CC2(N3CCCC3)CC(c3ccccc3)C1C(c1ccccc1)C2 (centres undefined)
3. CN1CCN(CCC(=O)N2CCC3(N4CCCCC4)CC(c4ccccc4)C2C(c2ccccc2)C3)CC1 (racemic)
4. CN1CCN(CCC(=O)NC2CC3(N(C)C)CC(c4ccccc4)C2C(c2ccccc2)C3)CC1 (racemic)
5. CN(C)C12CCNC(C(c3ccccc3)C1)C(c1ccccc1)C2 (centres undefined)
6. c1ccc(C2CC3(N4CCCC4)CCNC2C(c2ccccc2)C3)cc1 (centres undefined)
7. CN1CCN(CC(=O)N2CCC3(N(C)C)CC(c4ccccc4)C2C(c2ccccc2)C3)CC1 (racemic)

Out:
[6.16, 6.39, 4.51, 5.56, 6.22, 5.94, 4.34]

* * *

test: Selectivity index, ratio of IC50 for rat L6 cells to IC50 for Plasmodium falciparum K1; type: toxicity, cell-based; conditions: L6 cells (versus Plasmodium falciparum K1), read-out: Ratio IC50
readout-type: selectivity ratio
Answers are plain numbers.

Please review the entries below; each comes with its answer.
{"columns": ["compound", "selectivity ratio"],
 "data": [
  ["CN1CCN(CC(=O)OC2CC3(N(C)C)CC(c4ccccc4)C2C(c2ccccc2)C3)CC1 (racemic)", 114],
  ["CN1CCN(CC(=O)N2CCC3(N4CCCCC4)CC(c4ccccc4)C2C(c2ccccc2)C3)CC1 (racemic)", 286],
  ["CN1CCN(CC(=O)NC2CC3(N4CCCC4)CC(c4ccccc4)C2C(c2ccccc2)C3)CC1 (racemic)", 61.3]
]}

Below are 2 compounds. Give each one its selectivity ratio.
1. CN1CCN(CC(=O)OC2CC3(N4CCCC4)CC(c4ccccc4)C2C(c2ccccc2)C3)CC1 (racemic)
2. CN(C)C12CC(N)C(C(c3ccccc3)C1)C(c1ccccc1)C2 (stereo not given)

Out:
[45.5, 67]

Data origin: ChEMBL document CHEMBL1136884
